Recorded values, source the EternaBench riboswitch data.

tested on: MS2 coat protein; assay: apparent Kd, MS2 coat protein; higher = weaker binding; RNA-MaP array; conditions: designed as: OFF switch for flavin mononucleotide; no ligand
measured_property: apparent Kd (nM)
Give bare numbers, in nM.

The following sequences have reported results that may help.
CCUCGGCCAUCAGGAUAUCAUUCUCCGAUGCGGAACAUGAGGAUCACCCAUGUUGGGUACCCGUGUGAGAAGGGAUGCGUACGG	74.3
UUUACACACUCAGGAUAUGAAUUCAAUUUAUCGGGCCGCUAACAUGAGGAUCACCCAUGUAACAUUCAGAAGGGAGAAGAGCCA	17.5
AGGAGGCAUAAGAAGGGUACAUGUAUUGGGUGUACAGGAUAUUACAGGUGCCGCACAUGAGGAUCACCCAUGUUAUCAUUGUGC	39

I'm hoping you can list apparent Kd for every sequence here, please.
1. GAAAGGUGAGGAUAUACAUGAGGAUCACCCAUGUGUAGAAAUAGAAAGAAAAUCUCAAGUAGAAGGCACAAACA
2. CGGCGCUUAGGAUAUUAGAGAUGCAACAUGAGGAUCACCCAUGUGAUGAGGGUUGGCAGCUAAGAAGGAAGCAUCC
3. GAUUAAAAGAUAGGAUAUUUUGAAAUCGUCACAUGAGGAUCACCCAUGUAUGGCCUGGGCAAUCAAAAGAAGGAUCUUUCUGAU
4. CUCGUACAUGAGGAUCACCCAUGUCAGGAUAUUACUGUCGAGUCCAAAACUAGAAAGGUAAGAAGGGACACAUU

Ans.
1. 11.3
2. 86
3. 11.2
4. 13.3

----------
Hi there, I'd appreciate the recorded apparent Kd for every entry that follows.
system: MS2 coat protein; test: apparent Kd, MS2 coat protein; higher = weaker binding; RNA-MaP array; conditions: designed as: OFF switch for theophylline; no ligand
One number for each entry, in nM.

The following sequences have reported results that may help.
AACACACCAAAUGAUACCAGCUACAACAUGAUACAAAACCACAUGAGGAUCACCCAUGUAAGCCCUUGGCAGCAUACUACUGUAA	18.1
UGUGGGUCCGAAGAUACCAGCCAGCACAGCAUGUGUUUAAACAUGAGGAUCACCCAUGUCGGCCCUUGGCAGCUUGGUUUGGACG	15.5
UCGAUGGUACCCGAUACCAGCAAUACAUCACAGACCUGAUACAUGAGGAUCACCCAUGUGUGCCCUUGGCAGCGGGUCCUGAAAA	17.8

I'm hoping you can list apparent Kd for every sequence here, please.
1. GCCAAAAUACCCGAUACCAGUAUUAAUAGCACAACCUCACACAUGAGGAUCACCCAUGUAUACCCUUGGCAGCGGCCUAACAUAA
2. GGAACGAUCACUUCUUUAUCUAAGGCGGAUACCAGUCCUCGGUUUGACCCUUGGCAGCCGACAACAUGAGGAUCACCCAUGUUCU
3. CGGCUCAUAAUGGAUACCAGUCCAGCAUAGAAACCUUGACACAUGAGGAUCACCCAUGUUGACCCUUGGCAGCCAUUGAUCAUAC

Ans.
36.9
15.6
22.4

I'm hoping you can list apparent Kd for every sequence here, please.
1. GGGUUACUCUAUGAUACCAGUUCCAUGCCGAAACCUGUGUACAUGAGGAUCACCCAUGUGAACCCUUGGCAGCAUUAAUCAACUG
2. GAGCGCAGUUUACAACAUACUAACACAGAUACCAGAAAUUUUAUGUUCCCUUGGCAGCUGACAACAUGAGGAUCACCCAUGUGCU
3. UGAGAACAUGUCUUUAAGUUUACCUCUGAUACCAGAUUGAAAGGCAUCCCUUGGCAGCAGCAUACAUGAGGAUCACCCAUGUCCU

Ans.
[97.5, 17.1, 111]

----------
test system: MS2 coat protein; experiment: apparent Kd, MS2 coat protein; higher = weaker binding; RNA-MaP array; settings: ligand present: tryptophan; designed as: OFF switch for tryptophan
Hi there, I'd appreciate the recorded apparent Kd for every entry that follows.
Lab note: write values as number then unit, every time.

The following sequences have reported results that may help.
UUGAUUACCCAAGCGUGAUGGUCCUAGGAACGAGGACCGGUACGGCCGCCACUCGCAAGCAAACAUGAGGAUCACCCAUGUUUAU	23 nM
GUACCGUAAACGGCCGCCACUGACAUGAGGAUCACCCAUGUGCUGGUGGUGCACAACCUCAGGUUCAGGACCGGGUUUCCGAGCU	55 nM
ACGUUCGCGGUAUCCAACCGGUUGUACAAACGAGGACCGGUACGGCCGCCACUCGUGAUUGUACAUGAGGAUCACCCAUGUGGCA	17.2 nM

I'm hoping you can list apparent Kd for every sequence here, please.
1. AAACUGAUCUUCAGGAGUCACUAUAUCUCCCGAGGACCGGUACGGCCGCCACUCGAACGUUUACAUGAGGAUCACCCAUGUGACU
2. CUCUUGGCCGCAGUACGUUUAUAGACCUAUCGAGGACCGGUACGGCCGCCACUCGGUUAGUCACAUGAGGAUCACCCAUGUGUCC

Ans.
["19.6 nM", "29.9 nM"]

----------
tested on: MS2 coat protein; experiment: apparent Kd, MS2 coat protein; higher = weaker binding; RNA-MaP array; FMN 200 µM where present; conditions: ligand present: flavin mononucleotide; designed as: OFF switch for flavin mononucleotide
measured_property: apparent Kd (µM)
Give bare numbers, in µM.

The following sequences have reported results that may help.
AGUAUGAUCCAGAAGGACAUAUGACCAAGACGAAACAUGAGGAUCACCCAUGUAGGAUAUGGAUCAUACAGGAUCGUGAGAUCA	0.012
AGCUGGUGACAGCAUCGAGCAAAACAUGAGGAUCACCCAUGUAGAAGGCUGUACGGUUACCGUACAGAGGAUAUACAAAGCUCG	0.00814
UGAACUAUGUAGAAGGCCCAUAUUUAUAUUUAGGGAGGAUAUACAUGAGGAUCACCCAUGUAUAGAGCAAGUGGACUUGUCAGU	0.0103
ACAUGAGGAUCACCCAUGUACAUGGGUUUAAUUGUGUGUUACUAGGAUAUGUAUUUGAAUUUACAACAGAAGGAGUAUUACUGU	0.179

I'm hoping you can list apparent Kd for every sequence here, please.
1. GGAUAGGACAGAGGAUAUACGUGCUAGAGAUACUAGCAAAAUUUCCUCACAUGAGGAUCACCCAUGUAGAAGGCUGUCCUAGCG
2. CUGAGUAGUCAGGAUAUGUGGUACAAAAGUACUGCAGAAGGGAUUACAUGAGGAUCACCCAUGUUUACUUCAUG

Ans.
1. 0.376
2. 0.242

Qu. Requested read-out: apparent Kd. Entry: CGAUAUAUGAAGGGCGAACGCGCACAUGAGGAUCACCCAUGUAGAAGGCGGUCCGCAACGCGGAUCGAGGAUAUAUAGUAUACG
Ans. 0.0307

----------
Hi there, I'd appreciate the recorded apparent Kd for every entry that follows.
test system: MS2 coat protein; test: apparent Kd, MS2 coat protein; higher = weaker binding; RNA-MaP array; FMN 200 µM where present; details: ligand present: flavin mononucleotide; designed as: OFF switch for flavin mononucleotide
Lab note: write values as number then unit, every time.

CUUCAGUCAGGAUAUGUUAAUCUCGCCACUCCACGAGCCGGACAGAAGGGACAUGAGGAUCACCCAUGUUAGAC	0.0224 µM
CUUAGACAUGAGGAUCACCCAUGUGAGGAUAUGAUGCGAUCGUGCUGACAUGAUCGCAUCAGAAGGCACAUAUG	0.322 µM
UAUAUAUAGUAAGGAUAUGUAAUUAUUUCAUAAACAGAAGGUACUGACAUGAGGAUCACCCAUGUUUUAGUGUGGGCAUGUAGA	0.108 µM
GUCAGCUCGUGAGGAUAUACAUGUGCUGGAUACAGCACUAUUAAGAUCACAUGAGGAUCACCCAUGUAGAAGGCACGAGCUGAU	0.643 µM
GUACUGUAGUGAGGAUAUACGAGAUCGAUAGAUCGGCGAUCCAUUUAUACAUGAGGAUCACCCAUGUAGAAGGCACUUCAGUAC	0.0566 µM

I'm hoping you can list apparent Kd for every sequence here, please.
1. CUUAUGUGAGGAUAUCAGUAGUAAUACAAUAGUAUUACUACUGAGAAGGCACAUGAGGAUCACCCAUGUUCCUU
2. GCUUGUGAAGGAUAUACUGGCGGCAUGCGCUCGACACGCGCACAUGAGGAUCACCCAUGUAGAAGGUCAAACGU
3. GUUGUUACUGAGGAUAUUAUUUUAUUCGAUUGAUAAGAAGGCAGUACAUGAGGAUCACCCAUGUGGGUAGUUUG
4. GGUGCGUAUGUGAGGAUAUGCUGGUCCUUGGAUCGGCAGAAGGCACAUGAGGAUCACCCAUGUGGUGUCGUUCC
5. AUAGAAAGAUUAAUAUGAUUACAUGAGGAUCACCCAUGUAUAUAGGAUAUCGACGUCAAUGACGUCGAGAAGGAUAUACAUAAU
6. UUGUACCGGUGAGGAUAUUUUUAAUAGAACUUUAUGAUAUACAUGAGGAUCACCCAUGUUACUUUAAAGAAGGCAUCGGAUUAU
7. GAGAAGAGGGAAGGAUAUACAUGAGGAUCACCCAUGUAGAUAGGUUUAAUAGGUUGUUGUAGUUUGUAGAAGGUCCGGUUUGUU
8. AGUCGGAGCAGAGGAUAUAUACAUGAGGAUCACCCAUGUAAAUGGAAUAGCUGGAAACAGCAAGUAUAGAAGGCUGCUCCGACA

Ans.
0.131 µM
0.0177 µM
0.586 µM
0.0554 µM
0.0904 µM
0.0148 µM
0.0167 µM
0.118 µM

I'm hoping you can list apparent Kd for every sequence here, please.
1. AUAUUACGAGGAUAUCGUUUUUAUCACAUGAGGAUCACCCAUGUAAUUUAUGUUUCGUUUCGAGAAGGCGUAAGUU
2. AUCAGCUCGUCAGGAUAUACGUCACUGCGUCAGCAGUGUGGUAAGAUCACAUGAGGAUCACCCAUGUAGAAGGGAAGAGCUGAU

Ans.
0.022 µM
0.232 µM
